Tested on: NCI-H226
method summary: NCI tumour cell line growth inhibition, 48 h
Activity calls are given as the source filed them. Cut-off read from the data, not from the text of the source: active = GI50 up to about 1.1 µM and inactive = higher.
// allowed return values: active, inactive

| compound | label value |
| --- | --- |
| Cn1cnc2nc(Cl)nc(NC(C)(C)C(C)(C)O)c21 | inactive |
| COC(=O)C1=C(C)NC(=O)N2[C@@H](CCOCc3ccccc3)CC[C@@H]12 | inactive |
| CCOC(=O)c1sc2nc(SC)nc(Nc3ccc4c(c3)OCCCO4)c2c1N | inactive |
| CC(=O)Oc1ccc(-c2cc3ccccc3oc2=O)cc1 | inactive |
| O=c1c2cc([N+](=O)[O-])cnc2sn1-c1ccc(Br)cc1 | inactive |

Challenge: Would you mind telling me which call this test gave CC(=O)NC1C(OCc2ccccc2)OC(CO)C(O)C1OCC(=O)N[C@@H](C)C(=O)N[C@H](CCC(=O)NCCCCNc1c2ccccc2nc2cccc([N+](=O)[O-])c12)C(N)=O (stereo partly specified) ?
Response given: inactive

Challenge: Would you mind telling me which call this test gave C[C@@H](NC1CCC[C@H]1O)c1ccccc1 (stereo partly specified) ?
Response given: inactive

Challenge: Would you mind telling me which call this test gave `c1ccc(NN=C(c2ccccn2)c2ccccn2)nc1` ?
Response given: active

Challenge: Would you mind telling me which call this test gave `Cc1ncc([N+](=O)[O-])n1CCNS(=O)(=O)CCCn1ncnc1[N+](=O)[O-]` ?
Response given: inactive

Challenge: Would you mind telling me which call this test gave `CC(C)(C)C(=O)N1CCN(C=O)C1=S` ?
Response given: inactive

Challenge: Would you mind telling me which call this test gave CC(=O)OCC(OC(C)=O)C(OC(C)=O)C(OC(C)=O)C(C=NN(C(C)=O)S(=O)(=O)c1ccc(/C=C2\NC(=O)N(C)C2=O)cc1)OC(C)=O (stereo unspecified) ?
Response given: inactive

Source listed as ChEMBL document CHEMBL1201862.
